Test system: SNB-19
Assay: NCI tumour cell line growth inhibition, 48 h
Active and inactive are the calls of the source. No stated cut-off is given here; in the data, active = GI50 up to about 1.1 µM and inactive = higher. Residues, ends and D or L forms follow the SMILES beside them. *: point of attachment. Boc = CC(C)(C)OC(=O)*
Select the correct class. Options are active, inactive and nothing else.

Task: GET /call?item= CC(C)(C)OC(=O)NC(Cc1ccc(O)cc1)C(=O)NC(CCCCN)C(=O)O (stereo not drawn) (Boc-Tyr-Lys-OH; configuration not given here) returns the recorded outcome of this test.
Output: inactive

Task: In this assay, the call recorded for COc1ccc(C(C#N)NC23CC4CC(CC(C4)C2)C3)cc1 (stereo unspecified) was what?
Output: inactive

Task: Given CNC(=O)NCCCCC(NC(C)=O)C(=O)NCc1ccccc1 (stereo unspecified) , state the outcome it received in this test.
Output: inactive

Task: Could you kindly confirm the outcome this assay logged for `C/C(=N\N=C(\N)OB(F)F)c1ccccn1` ?
Output: inactive

Task: Please share the test call associated with `CCOC(=O)/C(C#N)=C1\c2c([nH]c(=S)[nH]c2=O)Oc2ccc3ccccc3c21` .
Output: active

Task: GET /call?item= `CCOC(=O)/C=C(/C(=O)OCC)n1cnc2c(=O)[nH]c(NC(C)=O)nc21` returns the recorded outcome of this test.
Output: inactive

Task: Hey, what did the test say about Cn1cc2c3ccccc3nc-2c2ccccc21 [ISOCRYPTOLEPINE] ?
Output: inactive

Task: Hello, I am checking results. What call was entered for `Cc1cccc2[s+]snc12` ?
Output: inactive

Task: Can you look up the reported call for `O=S(=O)(O)c1cc(O)c(/N=N/c2ccc(O)cc2O)c2ccccc12` for me?
Output: inactive

Task: Could you please tell me the result logged for CCCCCCCCCCCCCCCCCCN(C)C(COC)COP(=O)([O-])OCC[N+](C)(C)C (stereo unspecified) in this assay?
Output: inactive

Task: For N/N=C1\C(=O)N(C2CCCCC2)C(=O)C1C(=O)NC1CCCCC1 (stereo unspecified) , what call appears in the results of this test?
Output: inactive

Task: Recorded call for `COc1c(O)c(OC)c(C(=O)/C=C/c2ccccc2)c(O)c1OC` ?
Output: inactive

Task: Could you kindly confirm the outcome this assay logged for `Cc1ccc(-n2nncc2[Si](C)(C)C)s1` ?
Output: inactive

Task: Call for entry `C=C1[C@H](OC(C)=O)[C@H]2[C@@H](OC(C)=O)[C@@H](C)C[C@]2(C)C(=O)[C@H](C)/C=C/C(C)(C)C(=O)[C@H](OCC(C)C)[C@H]1OC(C)=O` :
Output: inactive

Task: Hi, sorry to bother you, what did the test record for `Oc1ccc(Cc2nccc3cc(O)c(O)cc23)cc1O` ?
Output: inactive

Task: Assay result, entry `O=S(=O)(O)n1ccnc1` — outcome?
Output: inactive

###

For each record, write down the corresponding GI50.
Test system: SK-OV-3
Test: NCI tumour cell line growth inhibition, 48 h
Activity calls are given as the source filed them. Rule as the data show it: active = GI50 up to about 1.1 µM and inactive = higher.

Task: May I ask what GI50 has been recorded for `COC(=O)C(CCCCN)NC(C)=O.Cc1ccc(C(=O)Nc2ccc(S(=O)(=O)O)c3cc(S(=O)(=O)O)cc(S(=O)(=O)O)c23)cc1NC(=O)c1cccc(NC(=O)Nc2cccc(C(=O)Nc3cc(C(=O)Nc4ccc(S(=O)(=O)O)c5cc(S(=O)(=O)O)cc(S(=O)(=O)O)c45)ccc3C)c2)c1` ?
Output: > 50 µM (inactive)

Task: State the recorded GI50 for this entry: CCOC(=O)Nc1ccc2c(c1)N(C(=O)CCN(CC)CC)c1ccccc1S2 [ETHACIZINE]
Output: 35 µM (inactive)

Task: What does the data say about its GI50? Entry: `COC(=O)/C(=C/c1ccc(OC)cc1)C(C(=O)O)=C1CCCC1`
Output: > 100 µM (inactive)

Task: May I ask what GI50 has been recorded for O=C1/C(=C/c2cc(O)c(O)c(O)c2)Oc2cc(O)cc(OC3OC(CO)C(O)C(O)C3O)c21 (centres undefined) ?
Output: 46.1 µM (inactive)

Task: Requested read-out: GI50. Entry: CC(/C=C/C=C\C=C\C=C(/C)C(=O)NC(C)CO)=C\C(C)C(O)/C(C)=C/C(C)CCc1ccccc1 (centres undefined)
Output: 16.4 µM (inactive)

Task: Dear colleague, I am looking for the recorded GI50 of the following compound: CCOC(=O)C1=C(C)CC2C(=O)OC(=O)C2C1(C)C (centres undefined)
Output: > 100 µM (inactive)

Task: Param item = `COC(=O)c1cc(-c2cccn2C)c2c(c1C(=O)OC)c1ccccc1n2C` ; retrieve measured GI50.
Output: > 100 µM (inactive)

Task: Field request: GI50 | item: `C=CCN1COc2c(cc3c4c(cccc24)C(=O)O3)C1`
Output: > 100 µM (inactive)

Task: Fill blank: measured GI50 of the compound COc1ccc(NC(=O)CC(=O)N2N=C(N3c4ccccc4Sc4ccccc43)CC2c2ccccc2)cc1 (centres undefined) is ____.
Output: > 100 µM (inactive)

Task: Name the reported GI50 value associated with the compound COc1ccc2c(c1)Oc1cc(O)ccc1[C@H]2c1ccccc1C(=O)NC(C)c1ccccc1 (some centres undefined)
Output: 21 µM (inactive)

Task: Item `CSc1n[nH]c2c1c(C)nn2-c1ccccc1` has what recorded GI50?
Output: > 100 µM (inactive)

Task: I would be grateful if you could share the reported GI50 for O=C(O)CNC(=O)c1ccccc1O [SALICYLURIC ACID] .
Output: > 100 µM (inactive)

Task: Look at this compound and give its reported GI50. `CC(C)(C)OC(=O)N1CCc2[nH][nH]c(=O)c2C1`
Output: > 100 µM (inactive)

Task: For the compound shown here, `S=c1[nH]c2c(Cl)c(Cl)c(Cl)c(Cl)c2[nH]1` , give the reported GI50.
Output: 20.1 µM (inactive)

Task: Name the recorded GI50 for `O=C(O)c1cccc(/C=C/c2ccccc2)c1` .
Output: > 100 µM (inactive)

Task: For the compound shown here, `Cc1cc(C)nc(NS(=O)(=O)c2ccc(NNC(=O)c3cccc4c(=O)c5ccccc5[nH]c34)cc2)n1` , give the reported GI50.
Output: 55.5 µM (inactive)

Task: // returns reported GI50 for input Cc1cn(C2CC(COCc3ccccc3)N(CCO[Si](C)(C)C(C)(C)C)O2)c(=O)[nH]c1=O (centres undefined)
Output: 17.6 µM (inactive)

Task: # query: GI50 of entry CC1=C2C(O)C(C(C)C(=O)NC(C)C)CCC2(C)C=CC1=O (centres undefined)
Output: > 100 µM (inactive)

Task: # GI50 lookup, item `COc1cccc(Nc2nc(C)c([N+](=O)[O-])c(Nc3cccc(OC)c3)n2)c1`
Output: > 100 µM (inactive)

Task: Any idea what its GI50 is? The compound is C[C@@H]1OCC(O)C([C@H]2OC(c3ccccc3)=N[C@H]2CO)O1 (some centres undefined)
Output: > 100 µM (inactive)

Task: // returns reported GI50 for input `Cc1ccc(-n2nncc2[Si](C)(C)C)s1`
Output: > 100 µM (inactive)

Task: Form field: reported GI50 of CC1=C2[C@@H](c3ccccc3)C3C=CC2(c2ccccc23)N(C(=O)Nc2cccc3ccccc23)C1=O (some centres undefined)
Output: > 100 µM (inactive)

Task: Entry `[N-]=[N+]=Nc1cc(=O)[nH]nc1-c1ccccc1` : reported GI50 = ?
Output: > 100 µM (inactive)

Task: Please give the measured GI50 for this compound: CCOC(=O)CCC1(C(=O)O[C@@H]2C[C@H](C)CC[C@H]2C(C)C)CCCCC1=O (some centres undefined)
Output: > 100 µM (inactive)

Where do the numbers come from? From ChEMBL document CHEMBL1201862.
